SYSTEM UNDER TEST: 3T3-L1 adipocytes (Mus musculus, UniProt P16092+Q99N32)
Sequence (Q99N32 whole entry): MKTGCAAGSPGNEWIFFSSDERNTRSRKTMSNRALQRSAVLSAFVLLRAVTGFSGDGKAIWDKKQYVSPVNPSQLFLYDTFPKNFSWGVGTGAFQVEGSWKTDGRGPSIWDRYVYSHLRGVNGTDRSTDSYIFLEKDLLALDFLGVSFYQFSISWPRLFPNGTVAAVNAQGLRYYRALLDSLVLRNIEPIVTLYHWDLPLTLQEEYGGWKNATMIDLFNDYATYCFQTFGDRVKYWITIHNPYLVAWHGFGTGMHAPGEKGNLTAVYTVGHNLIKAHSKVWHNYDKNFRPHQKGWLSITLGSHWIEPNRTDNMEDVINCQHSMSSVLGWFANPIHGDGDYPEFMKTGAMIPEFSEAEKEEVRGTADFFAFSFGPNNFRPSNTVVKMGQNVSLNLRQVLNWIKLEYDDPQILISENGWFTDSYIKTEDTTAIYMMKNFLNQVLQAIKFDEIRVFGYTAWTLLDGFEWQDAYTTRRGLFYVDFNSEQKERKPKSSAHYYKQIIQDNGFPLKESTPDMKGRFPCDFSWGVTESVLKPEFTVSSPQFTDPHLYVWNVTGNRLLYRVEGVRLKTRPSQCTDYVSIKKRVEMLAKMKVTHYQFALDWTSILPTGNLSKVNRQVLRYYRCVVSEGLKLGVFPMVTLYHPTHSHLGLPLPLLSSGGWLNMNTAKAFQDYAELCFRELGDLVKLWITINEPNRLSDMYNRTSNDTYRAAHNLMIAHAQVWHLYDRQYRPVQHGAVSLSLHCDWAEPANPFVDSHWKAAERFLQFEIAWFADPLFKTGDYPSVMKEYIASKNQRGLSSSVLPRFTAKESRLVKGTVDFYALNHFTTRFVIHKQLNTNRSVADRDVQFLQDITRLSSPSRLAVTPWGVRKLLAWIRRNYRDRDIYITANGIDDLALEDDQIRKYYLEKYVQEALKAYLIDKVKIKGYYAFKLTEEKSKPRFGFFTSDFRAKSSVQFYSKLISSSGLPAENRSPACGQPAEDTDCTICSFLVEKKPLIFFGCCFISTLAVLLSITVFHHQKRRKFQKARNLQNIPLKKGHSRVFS
Sequence (P16092 22-822): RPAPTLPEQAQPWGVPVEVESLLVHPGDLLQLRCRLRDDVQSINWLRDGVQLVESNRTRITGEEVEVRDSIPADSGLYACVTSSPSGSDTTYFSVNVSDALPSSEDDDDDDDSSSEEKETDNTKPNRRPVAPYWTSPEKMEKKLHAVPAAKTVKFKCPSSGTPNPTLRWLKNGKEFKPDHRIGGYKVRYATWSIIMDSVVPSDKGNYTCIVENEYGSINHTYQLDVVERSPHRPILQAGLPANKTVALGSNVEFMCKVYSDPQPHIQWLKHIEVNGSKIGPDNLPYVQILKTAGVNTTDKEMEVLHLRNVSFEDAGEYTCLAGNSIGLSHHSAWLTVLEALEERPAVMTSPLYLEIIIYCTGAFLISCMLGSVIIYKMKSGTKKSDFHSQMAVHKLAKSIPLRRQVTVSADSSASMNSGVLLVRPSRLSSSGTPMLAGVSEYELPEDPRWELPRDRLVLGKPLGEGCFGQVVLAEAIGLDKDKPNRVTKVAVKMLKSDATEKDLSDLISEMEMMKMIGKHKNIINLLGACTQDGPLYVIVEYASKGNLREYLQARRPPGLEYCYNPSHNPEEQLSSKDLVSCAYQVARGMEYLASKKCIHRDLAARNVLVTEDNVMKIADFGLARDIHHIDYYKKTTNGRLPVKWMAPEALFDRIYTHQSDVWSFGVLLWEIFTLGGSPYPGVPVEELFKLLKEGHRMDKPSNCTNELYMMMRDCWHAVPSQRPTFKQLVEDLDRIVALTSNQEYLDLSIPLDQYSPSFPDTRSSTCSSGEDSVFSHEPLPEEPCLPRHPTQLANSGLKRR
TEST METHOD NOTES: Glucose uptake in 3T3-L1 adipocytes
Type: cell-based
MEASUREMENT PARAMETERS: stimulated 20 hours, 3H-deoxy-glucose
QUANTITY KIND: Glucose uptake Emax (%)
Reply with just the number (in %).

MOLECULE	UNITS SYMBOL	Glucose uptake Emax
S{Beta-181}-[2-[2-[[2-[2-[2-[[2-[2-[2-[[(4S)-4-carboxy-4-(19-carboxynonadecanoyl-amino)butanoyl]amino]ethoxy]ethoxy]acetyl]amino]ethoxy]ethoxy]acetyl]amino]-ethylamino]-2-oxoethyl]-Ala[Gln121,Leu168,C … (protein) HPIPDSSPLLQFGGQVRQRYLYTDDAQQTEAHLEIREDGTVGGAADQSPESLLQLKALKPGVIQILGVKTSRFLCQRPDGALYGSLHFDPEACSFRELLLEDGYNVYQSEAHGLPLHLPGQKSPHRDPAPRGPARFLPLPGLPPALPEPPGILAPQPPDVGSSDPLSLVGPSQGRSPSYAC	%	57

Which Glucose uptake Emax value belongs to S{Beta-176}-2-aminoethylsulfanyl-Ala[Gln121, Leu168, Cys176]FGF21 (protein, cysteamine-protected Cys176) AHPIPDSSPLLQFGGQVRQRYLYTDDAQQTEAHLEIREDGTVGGAADQSPESLLQLKALKPGVIQILGVKTSRFLCQRPDGALYGSLHFDPEACSFRELLLEDGYNVYQSEAHGLPLHLPGQKSPHRDPAPRGPARFLPLPGLPPALPEPPGILAPQPPDVGSSDPLSLVGPSQGRCPSYAS ?
84

// provenance: patent US20170182124A1
